tested on: SIRT1 (Homo sapiens)
Sequence (Q96EB6 whole entry): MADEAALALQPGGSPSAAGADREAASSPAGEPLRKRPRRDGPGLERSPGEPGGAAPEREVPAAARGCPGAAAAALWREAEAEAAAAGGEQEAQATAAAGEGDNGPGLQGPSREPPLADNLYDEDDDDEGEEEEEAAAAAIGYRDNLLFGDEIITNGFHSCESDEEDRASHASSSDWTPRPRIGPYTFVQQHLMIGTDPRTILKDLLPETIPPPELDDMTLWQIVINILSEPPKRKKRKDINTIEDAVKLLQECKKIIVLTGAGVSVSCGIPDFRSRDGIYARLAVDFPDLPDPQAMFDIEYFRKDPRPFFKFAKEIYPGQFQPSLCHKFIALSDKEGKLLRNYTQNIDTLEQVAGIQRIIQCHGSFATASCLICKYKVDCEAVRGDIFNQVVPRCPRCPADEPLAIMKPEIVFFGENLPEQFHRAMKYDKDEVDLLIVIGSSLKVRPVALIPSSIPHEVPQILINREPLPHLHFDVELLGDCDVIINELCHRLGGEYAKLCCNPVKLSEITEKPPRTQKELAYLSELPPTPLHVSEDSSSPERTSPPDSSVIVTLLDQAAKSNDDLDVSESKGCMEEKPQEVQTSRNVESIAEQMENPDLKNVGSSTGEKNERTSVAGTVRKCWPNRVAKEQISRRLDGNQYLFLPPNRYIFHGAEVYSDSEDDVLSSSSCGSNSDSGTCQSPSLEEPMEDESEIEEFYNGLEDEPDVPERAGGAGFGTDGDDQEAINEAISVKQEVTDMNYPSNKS
assay remarks: SIRT-Glo enzyme inhibition assay, SIRT1
condition description: read-out: SIRT1 percentage inhibition at 50 µM compound, 50 µM compound
Field: inhibition at 50 µM. Provide a value for each of the compounds that follow.
Numbers only, in %.

(Q) Reported inhibition at 50 µM for SIRT1 (Homo sapiens), given NC(=O)C(Cc1c(O)ccc2cc(Br)ccc12)C(=O)c1ccc(Cl)cc1 (centres unmarked) [Compound 19] ?
(A) 0

(Q) Reported inhibition at 50 µM for SIRT1 (Homo sapiens), given NC(=O)C(Cc1c(O)ccc2ccc(Br)cc12)C(=O)c1cccc(Br)c1 (centres unmarked) [Compound 32] ?
(A) 0

(Q) Reported inhibition at 50 µM for SIRT1 (Homo sapiens), given NC(=O)C(Cc1c(O)ccc2cc(Br)ccc12)C(=O)c1ccc(C(F)(F)F)cc1 (centres unmarked) [Compound 20] ?
(A) 0

(Q) Reported inhibition at 50 µM for SIRT1 (Homo sapiens), given NC(=O)C(Cc1c(O)ccc2cc(Br)ccc12)C(=O)c1ccc(F)cc1 (centres unmarked) [Compound 25] ?
(A) 35

(Q) Reported inhibition at 50 µM for SIRT1 (Homo sapiens), given O=C(NCc1cccnc1)C(Cc1c(O)ccc2cc(Br)ccc12)C(=O)c1cccc(Br)c1 (centres unmarked) [Compound 42] ?
(A) 3

Each compound below has a reported value. Please supply its inhibition at 50 µM.
1. O=C(NCCO)C(Cc1c(O)ccc2cc(Br)ccc12)C(=O)c1ccc(Cl)cc1 (centres unmarked) [Compound 47]
2. COc1ccc(C(=O)C(Cc2c(O)ccc3cc(Br)ccc23)C(N)=O)cc1 (centres unmarked) [Compound 24]
3. NC(=O)CCNC(=O)C(Cc1c(O)ccc2cc(Br)ccc12)C(=O)c1ccc(Br)cc1 (centres unmarked) [Compound 51]
4. NC(=O)C(Cc1c(O)ccc2ccccc12)C(=O)c1cccc(Br)c1 (centres unmarked) [Compound 29]
5. O=C(c1cccc(Br)c1)C(Cc1c(O)ccc2cc(Br)ccc12)C(=O)N1CCOCC1 (centres unmarked) [Compound 38]
6. CNC(=O)CCNC(=O)C(Cc1c(O)ccc2cc(Br)ccc12)C(=O)c1cccc(Br)c1 (centres unmarked) [Compound 44]

(A)
0
34
20
12
1
0

Each compound below has a reported value. Please supply its inhibition at 50 µM.
1. O=C(NCCO)C(Cc1c(O)ccc2cc(Br)ccc12)C(=O)c1ccc(C(F)(F)F)cc1 (centres unmarked) [Compound 49]
2. NC(=O)C(Cc1c(O)ccc2cc(Br)ccc12)C(=O)c1ccc(Br)cc1 (centres unmarked) [Compound 22]
3. Cc1ccc(C(=O)C(Cc2c(O)ccc3cc(Br)ccc23)C(N)=O)cc1 (centres unmarked) [Compound 4]

(A)
[15, 7, 9]

---

Field: inhibition at 50 µM. Provide a value for each of the molecules that follow.
tested on: SIRT2 (Homo sapiens, UniProt Q8IXJ6)
Sequence (Q8IXJ6 whole entry): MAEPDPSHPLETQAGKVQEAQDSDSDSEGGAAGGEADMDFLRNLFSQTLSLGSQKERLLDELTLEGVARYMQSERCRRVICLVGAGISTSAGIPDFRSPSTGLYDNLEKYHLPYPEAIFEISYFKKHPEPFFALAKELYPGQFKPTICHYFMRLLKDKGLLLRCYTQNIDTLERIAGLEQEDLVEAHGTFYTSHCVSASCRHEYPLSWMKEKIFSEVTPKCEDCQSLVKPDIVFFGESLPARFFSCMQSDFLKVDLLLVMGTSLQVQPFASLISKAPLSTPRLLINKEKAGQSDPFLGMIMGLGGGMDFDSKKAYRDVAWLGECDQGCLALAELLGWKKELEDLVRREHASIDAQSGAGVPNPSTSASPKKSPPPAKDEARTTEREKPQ
assay remarks: SIRT-Glo enzyme inhibition assay, SIRT2
condition description: read-out: SIRT2 percentage inhibition at 50 µM compound, 50 µM compound
Numbers only, in %.

Guide cases for inhibition at 50 µM, answers given:
(Q) What does the data say about its inhibition at 50 µM? Entry: CNC(=O)C(Cc1c(O)ccc2cc(Br)ccc12)C(=O)c1ccc(C(F)(F)F)cc1 (stereo not shown)
(A) 97

(Q) What does the data say about its inhibition at 50 µM? Entry: NC(=O)C(Cc1c(O)ccc2cc(Br)ccc12)C(=O)c1ccc(F)cc1 (stereo not shown)
(A) 96

(Q) What does the data say about its inhibition at 50 µM? Entry: O=C(NCCO)C(Cc1c(O)ccc2cc(Br)ccc12)C(=O)c1ccc(C(F)(F)F)cc1 (stereo not shown)
(A) 99

(Q) What does the data say about its inhibition at 50 µM? Entry: NC(=O)C(Cc1c(O)ccc2ccc(Br)cc12)C(=O)c1cccc(Br)c1 (stereo not shown)
(A) 16

(Q) What does the data say about its inhibition at 50 µM? Entry: CNC(=O)CCNC(=O)C(Cc1c(O)ccc2cc(Br)ccc12)C(=O)c1ccc(Cl)cc1 (stereo not shown)
(A) 99

(Q) What does the data say about its inhibition at 50 µM? Entry: O=C(c1cccc(Br)c1)C(Cc1c(O)ccc2cc(Br)ccc12)C(=O)N1CCOCC1 (stereo not shown)
(A) 22

(Q) What does the data say about its inhibition at 50 µM? Entry: COc1ccc(C(=O)C(Cc2c(O)ccc3cc(Br)ccc23)C(N)=O)cc1 (stereo not shown)
(A) 72

(Q) What does the data say about its inhibition at 50 µM? Entry: NC(=O)CCNC(=O)C(Cc1c(O)ccc2cc(Br)ccc12)C(=O)c1cccc(Br)c1 (stereo not shown)
(A) 89

Each molecule below has a reported value. Please supply its inhibition at 50 µM.
1. CNC(=O)CCNC(=O)C(Cc1c(O)ccc2cc(Br)ccc12)C(=O)c1cccc(Br)c1 (stereo not shown)
2. CN1CCN(C(=O)C(Cc2c(O)ccc3cc(Br)ccc23)C(=O)c2ccc(C(F)(F)F)cc2)CC1 (stereo not shown)

(A)
1: 98; 2: 88

This collection of values is drawn from paper PMC7036909.
